Sourced from the supplement of paper PMC10307832

- Tested on: NCI-H322M
- procedure_summary: relative viability (nuclei count vs DMSO), 5 days (fraction); higher = more cells survive
- protocol_conditions: first compound 20 µM
Hi! Could you tag entries with relative viability below 0.9 as True, and those at or above as False? Much appreciated.

compound: COCC1(CO)C(=O)C2CCN1CC2 (stereo unspecified) [PRIMA-1MET] + Cc1nc(Nc2ncc(C(=O)Nc3c(C)cccc3Cl)s2)cc(N2CCN(CCO)CC2)n1 [Dasatinib] (partner 0.075 µM)
class_name: True
//
compound: COCC1(CO)C(=O)C2CCN1CC2 (stereo unspecified) [PRIMA-1MET] + Nc1ncn([C@H]2C[C@H](O)[C@@H](CO)O2)c(=O)n1 [Decitabine] (partner 2 µM)
class_name: True
//
compound: COCC1(CO)C(=O)C2CCN1CC2 (stereo unspecified) [PRIMA-1MET] + CC1(C)CCC(c2ccc(Cl)cc2)=C(CN2CCN(c3ccc(C(=O)NS(=O)(=O)c4ccc(N[C@H](CCN5CCOCC5)CSc5ccccc5)c(S(=O)(=O)C(F)(F)F)c4)cc3)CC2)C1 [Navitoclax] (partner 0.5 µM)
class_name: False
//
compound: COCC1(CO)C(=O)C2CCN1CC2 (stereo unspecified) [PRIMA-1MET] + C[C@]1(O)C[C@@H](c2nc(-c3ccc4ccc(-c5ccccc5)nc4c3)c3c(N)nccn32)C1 [Linsitinib] (partner 1 µM)
class_name: True
//
compound: COCC1(CO)C(=O)C2CCN1CC2 (stereo unspecified) [PRIMA-1MET] + CCNC(=O)c1noc(-c2cc(C(C)C)c(O)cc2O)c1-c1ccc(CN2CCOCC2)cc1 [Luminespib] (partner 0.01 µM)
class_name: True
//
compound: COCC1(CO)C(=O)C2CCN1CC2 (stereo unspecified) [PRIMA-1MET] + COc1cc2c(Oc3ccc(NC(=O)C4(C(=O)Nc5ccc(F)cc5)CC4)cc3F)ccnc2cc1OCCCN1CCOCC1 [Foretinib] (partner 0.25 µM)
class_name: False
